Just for reference, PubChem BioAssay (EPA / NIEHS) is where these values come from.

Method Summary: BSK_BT_Bcell_Proliferation: Viability Assessment in the BioMAP Diversity Plus: BT Assay for B cell Proliferation (AID 2284227)
Test Context: primary human B cells with PBMC
Activity calls are given as the source filed them. Rule for the calls: active = hit-call score of the fitted dose curve at least 0.9, where 1 is the maximum; inactive = score below 0.9.
Endpoint: AC50

{"columns": ["Compound", "Endpoint", "Reading"],
 "data": [
  ["c1ccc2c(c1)ccc1cc3c(ccc4ccccc43)cc12", "AC50", "inactive"],
  ["C#CC1(O)CC[C@H]2[C@@H]3CCC4=CCCC[C@@H]4[C@H]3CC[C@@]21C (stereo partly drawn)", "AC50", "30.1 µM (active)"],
  ["O=c1c2ccccc2oc2ccccc12", "AC50", "inactive"],
  ["c1ccc(-c2ccccn2)nc1", "AC50", "inactive"],
  ["C=CC(=O)OCC(Br)CBr (stereo not drawn)", "AC50", "20 µM (active)"],
  ["CCCCCCCCc1ccc(Nc2ccc(CCCCCCCC)cc2)cc1", "AC50", "inactive"],
  ["C=CCOCC(O)CCl (stereo not drawn)", "AC50", "inactive"],
  ["O=Nc1ccc(O)cc1", "AC50", "inactive"],
  ["CCCCNc1ccc(NCCCC)c2c1C(=O)c1ccccc1C2=O", "AC50", "inactive"],
  ["COCc1c(C(C)C)nc(C(C)C)c(/C=C/[C@@H](O)C[C@@H](O)CC(=O)O)c1-c1ccc(F)cc1", "AC50", "0.24 µM (active)"],
  ["O=C(Cl)c1cc(C(=O)Cl)cc(C(=O)Cl)c1", "AC50", "29.3 µM (active)"],
  ["c1ccc2c(c1)ccc1ncccc12", "AC50", "inactive"],
  ["COc1ccc2nc(N)sc2c1", "AC50", "inactive"]
]}
